Attribution: PubChem BioAssay (NCI)

In this section we review reported TGI values for a set of molecules.
Tested on: OVCAR-8 ovarian
Experiment: NCI tumour cell line growth inhibition, 48 h
READOUT: TGI

INSERT INTO assay_data (molecule, assayed_system, readout, result) VALUES
  ('O=C(O)CC[C@H](NC(=O)c1ccc(-n2nc3ccc(O)cc3nc2=O)cc1)C(=O)O', 'OVCAR-8 ovarian', 'TGI', '> 100 µM'),
  ('COc1ccc2c(c1)C(=O)c1ccc(OC)cc1C2=S', 'OVCAR-8 ovarian', 'TGI', '> 100 µM'),
  ('OC(CCNC12CC3CC(CC(C3)C1)C2)c1ccccc1 (centres undefined)', 'OVCAR-8 ovarian', 'TGI', '> 100 µM'),
  ('CC(C)CNc1nc2ncnc(N)c2[nH]1', 'OVCAR-8 ovarian', 'TGI', '> 100 µM'),
  ('C/C=C/c1cc(=O)c([C@@H]2OC(=O)c3cc(OC)cc(OC)c32)co1', 'OVCAR-8 ovarian', 'TGI', '> 100 µM'),
  ('O=C1CCCCCCCCCCC1CN1CCCC1 (centres undefined)', 'OVCAR-8 ovarian', 'TGI', '> 100 µM'),
  ('O=C1C[C@@H](C(=O)OCc2ccccc2)NC(=O)C[C@@H](C(=O)OCc2ccccc2)NC(=O)C[C@@H](C(=O)OCc2ccccc2)N1', 'OVCAR-8 ovarian', 'TGI', '> 100 µM'),
  ('CC(=O)N1CC(C)(C)c2c(C)c(O)c(C)c(C)c21', 'OVCAR-8 ovarian', 'TGI', '> 100 µM'),
  ('CC1(C)N/C(=C\C=O)C(C)(C)N1O', 'OVCAR-8 ovarian', 'TGI', '> 100 µM'),
  ('Cc1ccc(OCC2OC(n3cnc4c(Cl)nc(N)nc43)CC2Oc2ccc(C)cc2)cc1 (centres undefined)', 'OVCAR-8 ovarian', 'TGI', '> 100 µM'),
  ('C[C@H](OCc1ccccc1)C(=O)N1CCS(=O)(=O)N2CCC[C@@H]2C1=O', 'OVCAR-8 ovarian', 'TGI', '> 100 µM'),
  ('CN(C)c1ccc(/C(F)=C(F)/C(F)=C(F)/C(F)=C(\F)c2ccc(Br)cc2)cc1', 'OVCAR-8 ovarian', 'TGI', '> 96 µM'),
  ('COc1cc2ccnc3c2c(c1OC)-c1coc(SC)c1-3', 'OVCAR-8 ovarian', 'TGI', '> 100 µM'),
  ('CC(=O)Nc1ccc(S(=O)(=O)N/N=C/CN2C(=O)c3ccccc3C2=O)cc1', 'OVCAR-8 ovarian', 'TGI', '> 100 µM'),
  ('OC1(C23CC4CC(CC(C4)C2)C3)CSCC1(O)C12CC3CC(CC(C3)C1)C2 (centres undefined)', 'OVCAR-8 ovarian', 'TGI', '> 100 µM'),
  ('C=Cc1cncc(C#N)c1CCc1c(C#N)cncc1C=C', 'OVCAR-8 ovarian', 'TGI', '> 100 µM'),
  ('COc1ccc(CC(N)c2ccc(OC)cc2)cc1 (centres undefined)', 'OVCAR-8 ovarian', 'TGI', '> 100 µM'),
  ('CCCCCCCC/C=C\CCCCCCC/C=C1\C[C@](/C=C/C(=O)OC)(CO)OC1=O', 'OVCAR-8 ovarian', 'TGI', '8.5 µM'),
  ('O=C1OCC2=C1C(c1cccc(Cl)c1)c1cc3c(cc1N2CCO)OCCO3 (centres undefined)', 'OVCAR-8 ovarian', 'TGI', '4.33 µM');
